Taken from patent US11319298B2.

# system: human M4 muscarinic acetylcholine receptor (Homo sapiens, UniProt P08173)
# Sequence (P08173 whole entry): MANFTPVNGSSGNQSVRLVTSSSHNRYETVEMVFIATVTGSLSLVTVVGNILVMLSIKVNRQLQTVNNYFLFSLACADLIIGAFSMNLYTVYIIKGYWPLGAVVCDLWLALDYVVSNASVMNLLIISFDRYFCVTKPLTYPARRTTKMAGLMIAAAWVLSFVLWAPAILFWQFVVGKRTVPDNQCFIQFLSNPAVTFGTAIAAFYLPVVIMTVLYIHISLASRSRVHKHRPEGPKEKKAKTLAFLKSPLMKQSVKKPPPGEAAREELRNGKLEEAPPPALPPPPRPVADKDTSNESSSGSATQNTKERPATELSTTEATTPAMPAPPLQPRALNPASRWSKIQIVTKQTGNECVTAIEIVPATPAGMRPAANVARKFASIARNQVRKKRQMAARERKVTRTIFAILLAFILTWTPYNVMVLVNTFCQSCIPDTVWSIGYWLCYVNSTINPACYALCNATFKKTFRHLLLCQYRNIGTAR
# protocol: human FLIPR-based M4 PAM assay, CHO-K1 cells stably transfected with human M4 receptor and chimeric G-protein Gαqi5
# measurement-conditions: inflection point (IP) of dose response curve; acetylcholine added at 20% of maximum response; CHO-K1 human M4/Gαqi5, FLIPR Tetra
Recorded measurements of EC50, one per entry
metric: EC50

> print(dat)
                                    molecule  metric  observed
 1  Cc1c(Cl)nc(CO)nc1N1CCC(Oc2ccc3c(c2)NCCC3)CC1    EC50    220 nM
 2  Cc1ncc(C)c(N2CC[C@H](Oc3cccc(C#N)c3)[C@@H](F)C2)n1    EC50    475 nM
 3  COCc1nc(Cl)c(C)c(N2CCC(Oc3ccc(OC)nc3)CC2)n1    EC50    187 nM
 4  COc1ccc(OC2CCN(c3nnc(C(=O)NCc4ccncc4Cl)cc3C)CC2)cn1    EC50    262 nM
 5  COc1ccc(OC2CCN(c3nnc(-c4nnc(C)o4)cc3C)CC2)cn1    EC50    251 nM
 6  COCc1nc(Cl)c(C)c(N2CCC(Oc3ccc(OC)cc3)CC2)n1    EC50     84 nM
 7  COc1ccc(OC2CCN(c3nnc(C(=O)NCc4ccncc4)cc3C)CC2)cn1 [Example 116]    EC50     79 nM
 8  COc1ncc(OC2CCN(c3nc(CO)nc(Cl)c3C)CC2)cc1Cl    EC50    100 nM
 9  COC(=O)c1cc(C)c(N2CCC(Oc3ccc(OC)nc3)CC2)nn1    EC50    129 nM
10  COc1ccc(OC2CCN(c3ncnc(N4CCc5scnc5C4)c3C)CC2)cn1    EC50    807 nM
11  COc1ccc(OC2CCN(c3nnc(C(N)=O)cc3C)CC2)cn1    EC50    114 nM
12  Cc1nc(C)c(C)c(N2CCC(Oc3cccc(C#N)c3)CC2)n1    EC50     61 nM
13  COc1ccc(OC2CCN(c3nnc(C(=O)NC4CCNC4=O)cc3C)CC2)cn1 (stereo not drawn)    EC50    808 nM
14  Cc1cc(C(=O)N2CCc3snc(-c4cccnc4)c3C2)nnc1N1CCC(Oc2cccc(C#N)c2)CC1    EC50   1150 nM
15  CCOC(=O)c1cc(C)c(N2CCC(Oc3ccc(OC)nc3)CC2)nn1 [Example 105A]    EC50    170 nM
16       COc1ccc(OC2CCN(c3ncnc(N)c3C)CC2)cn1    EC50   1610 nM
17  COc1ccc(OC2CCN(c3nnc(C(=O)NC4CC4)cc3C)CC2)cn1    EC50    302 nM
18  Cc1ncc(C)c(N2CCC(Oc3ccc4c(c3)C(=O)NC4)CC2)n1    EC50    674 nM
